Value source: patent US20040110727A1

tested on: genomic DNA of IMR-32 cells; settings: 4 μM [14C] Adriamycin simultaneously with 100 μM aldehyde-releasing compound
measure-name: adduct levels compared to Adriamycin alone

molecule	result
CCCC(=O)OCOC(=O)C(C)(C)C [AN-9, Pivaloyloxymethyl Butyrate]	enhanced adduct levels
CCCC(=O)OCOP(=O)(OCC)OCC [AN-7, Butyroyloxymethyldiethyl Phosphate]	enhanced adduct levels
